Source: patent US20210395210A1

Biological target: native MDH (Sus scrofa)
Construct: soluble pig heart MDH from Roche, product #10127248001; purchased Roche 10127248001; host or cells: pig heart
Sequence (P00346 25-338): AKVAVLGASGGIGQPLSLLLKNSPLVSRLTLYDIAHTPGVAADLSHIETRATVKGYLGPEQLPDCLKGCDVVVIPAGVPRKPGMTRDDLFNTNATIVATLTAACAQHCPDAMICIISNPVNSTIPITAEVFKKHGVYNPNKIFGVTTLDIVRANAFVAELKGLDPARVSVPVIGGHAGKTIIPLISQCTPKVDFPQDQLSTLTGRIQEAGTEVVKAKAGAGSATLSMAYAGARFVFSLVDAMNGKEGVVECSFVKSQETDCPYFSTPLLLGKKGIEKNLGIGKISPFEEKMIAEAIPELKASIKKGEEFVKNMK
Test: Counter-screen for inhibition of native MDH enzymatic activity
Type: biochemical, pig
Details: false-positive counter-screen
measured_parameter: inhibition of native MDH enzymatic activity (in words)

>  <compound>
O=C(Nc1ccc(Sc2nc3ccccc3s2)cc1)c1cc(Br)cc(Br)c1O

>  <endpoint_result>
inhibit native MDH

$$$$
>  <compound>
Cc1cc(C(C#N)c2ccc(Cl)cc2)c(Cl)cc1NC(=O)c1cc(I)cc(I)c1O (stereo not shown) [Closantel, closantel, reference compound]

>  <endpoint_result>
inhibit native MDH

$$$$

* * *

In this section, each of the molecules is paired with its reported IC50.
Biological target: human HSP60/10 (Homo sapiens, UniProt P10809)
Construct: octa-Histidine tag (TEV-cleavable) (N, cleaved yes); made in house; host or cells: HSP60 in E. coli Rosetta 2 (DE3); HSP10 in Rosetta 2 (DE3) pLysS
Sequence (P10809 27-573): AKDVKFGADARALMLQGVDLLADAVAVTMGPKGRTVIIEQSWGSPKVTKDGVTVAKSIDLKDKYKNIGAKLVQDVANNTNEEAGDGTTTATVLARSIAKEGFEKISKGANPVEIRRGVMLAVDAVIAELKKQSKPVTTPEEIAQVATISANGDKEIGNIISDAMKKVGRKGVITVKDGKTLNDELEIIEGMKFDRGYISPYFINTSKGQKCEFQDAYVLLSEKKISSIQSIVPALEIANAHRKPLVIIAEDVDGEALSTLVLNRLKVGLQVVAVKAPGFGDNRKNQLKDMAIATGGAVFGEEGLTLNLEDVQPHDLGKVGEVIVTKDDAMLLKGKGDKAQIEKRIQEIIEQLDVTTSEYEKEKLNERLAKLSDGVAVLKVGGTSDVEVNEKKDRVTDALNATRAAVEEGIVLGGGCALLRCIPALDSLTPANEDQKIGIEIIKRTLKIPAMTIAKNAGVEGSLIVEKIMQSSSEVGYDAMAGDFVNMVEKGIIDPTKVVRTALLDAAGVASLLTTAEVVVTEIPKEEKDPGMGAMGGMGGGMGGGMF
Assay: HSP60/10-mediated dMDH refolding assay
Format: biochemical
Settings: human HSP60/10-dMDH refolding assay; read-out: HSP60/10-dMDH Refolding IC50
Protocol: Reagent preparation: For these assays, four primary reagent stocks were prepared: 1) GroEUES-dMDH or HSP60/10-dMDH binary complex stock; 2) ATP initiation stock; 3) EDTA quench stock; 4) MDH enzymatic assay stock. Denatured MDH (dMDH) was prepared by 2-fold dilution of MDH (5 mg/ml, soluble pig heart MDH from Roche, product #10127248001) with denaturant buffer (7 M guanidine-HCl, 200 mM Tris, pH 7.4, and 50 mM DTT). MDH was completely denatured by incubating at room temperature for 45 min. […]
measured_parameter: IC50

>  <molecule>
COc1c(Br)cccc1C(=O)Nc1ccccc1 [Compound 42, 3-Bromo-2-methoxy-N-phenylbenzamide]

>  <assayed_system>
human HSP60/10 (Homo sapiens, UniProt P10809)

>  <endpoint_result>
> 100 µM

$$$$
>  <molecule>
COc1ccccc1C(=O)Nc1cccc(Cl)c1 [Compound 40, N-(3-Chlorophenyl)-2-methoxybenzamide]

>  <assayed_system>
human HSP60/10 (Homo sapiens, UniProt P10809)

>  <endpoint_result>
> 100 µM

$$$$
>  <molecule>
O=C(Nc1ccccc1)c1cccc(Br)c1O [Compound 14, 3-Bromo-2-hydroxy-N-phenylbenzamide]

>  <assayed_system>
human HSP60/10 (Homo sapiens, UniProt P10809)

>  <endpoint_result>
> 100 µM

$$$$

* * *

Molecular target: human HSP60/10 (Homo sapiens, UniProt P10809)
Construct: octa-Histidine tag (TEV-cleavable) (N, cleaved yes); made in house; host or cells: HSP60 in E. coli Rosetta 2 (DE3); HSP10 in Rosetta 2 (DE3) pLysS
Test: HSP60/10-mediated dMDH refolding assay
Format: biochemical
Details: log(IC50) ± standard deviation; human HSP60/10-dMDH refolding assay; read-out: HSP60/10-dMDH Refolding Assay log(IC50) (converted)
measured_parameter: IC50

>  <molecule>
O=C(Nc1cccc(Cl)c1)c1cc(Br)cc(Br)c1O [Compound 9]

>  <endpoint_result>
28.8 µM

$$$$
>  <molecule>
O=C(Nc1ccc(Sc2nc3ccccc3s2)c(Cl)c1)c1cc(Br)ccc1O [Compound 3]

>  <endpoint_result>
> 100 µM

$$$$
>  <molecule>
COc1c(Br)cc(Br)cc1C(=O)Nc1ccc(Sc2nc3ccccc3s2)c(Cl)c1 [Compound 29]

>  <endpoint_result>
> 100 µM

$$$$
>  <molecule>
COc1ccc(Br)cc1C(=O)Nc1ccc(Sc2nc3ccccc3s2)c(Cl)c1 [Compound 31]

>  <endpoint_result>
> 100 µM

$$$$
